biological target: Estrogen receptor (Mus musculus) (UniProt O08537+P19785); experiment: Uterotrophic activity in mice as uterus dry weight (mg)/body weight (g) *100 at 25 ug dose; format: functional, tissue-based
Sequence (O08537 whole entry, looked up): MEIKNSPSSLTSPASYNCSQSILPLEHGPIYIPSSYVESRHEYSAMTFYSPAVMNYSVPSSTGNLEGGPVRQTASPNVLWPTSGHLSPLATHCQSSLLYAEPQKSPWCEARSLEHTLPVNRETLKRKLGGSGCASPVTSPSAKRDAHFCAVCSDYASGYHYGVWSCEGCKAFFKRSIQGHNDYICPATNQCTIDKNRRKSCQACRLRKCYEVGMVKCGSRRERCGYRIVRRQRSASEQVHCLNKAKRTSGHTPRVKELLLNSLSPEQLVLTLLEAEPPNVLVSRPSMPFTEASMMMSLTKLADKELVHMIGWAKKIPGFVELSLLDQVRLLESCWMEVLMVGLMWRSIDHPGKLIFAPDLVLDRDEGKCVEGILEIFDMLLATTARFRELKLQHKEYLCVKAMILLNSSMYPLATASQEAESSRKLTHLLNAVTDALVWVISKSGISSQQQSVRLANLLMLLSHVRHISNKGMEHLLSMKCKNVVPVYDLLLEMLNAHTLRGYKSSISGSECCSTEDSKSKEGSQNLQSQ
Sequence (P19785 whole entry, looked up): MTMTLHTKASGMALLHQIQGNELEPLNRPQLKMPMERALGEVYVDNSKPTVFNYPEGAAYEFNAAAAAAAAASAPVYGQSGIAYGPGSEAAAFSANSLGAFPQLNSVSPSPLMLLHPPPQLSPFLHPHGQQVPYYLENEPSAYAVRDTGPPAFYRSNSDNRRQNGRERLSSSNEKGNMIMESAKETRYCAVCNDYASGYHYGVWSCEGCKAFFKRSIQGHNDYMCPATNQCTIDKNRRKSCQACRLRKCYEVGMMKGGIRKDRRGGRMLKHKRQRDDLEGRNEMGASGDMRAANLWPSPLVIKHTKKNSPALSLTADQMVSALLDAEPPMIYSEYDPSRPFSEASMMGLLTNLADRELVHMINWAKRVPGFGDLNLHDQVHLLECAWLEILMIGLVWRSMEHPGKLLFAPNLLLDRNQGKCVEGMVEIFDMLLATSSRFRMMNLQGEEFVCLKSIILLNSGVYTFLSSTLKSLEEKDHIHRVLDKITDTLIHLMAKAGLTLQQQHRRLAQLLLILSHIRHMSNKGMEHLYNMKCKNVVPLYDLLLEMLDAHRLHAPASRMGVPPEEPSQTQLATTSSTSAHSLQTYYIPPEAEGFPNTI
Label Y when Uterotrophic effect < 30; otherwise N.

>  <STRUCTURE_NOTATION>
CCc1c(-c2ccc(OC(C)=O)cc2)n(C)c2cc(OC(C)=O)ccc12

>  <LABEL_VALUE>
Y

$$$$
>  <STRUCTURE_NOTATION>
CCc1c(-c2ccc(OC(C)=O)cc2)n(CC)c2ccc(OC(C)=O)cc12

>  <LABEL_VALUE>
N

$$$$
>  <STRUCTURE_NOTATION>
CC(=O)Oc1ccc(-c2c(C)c3cc(OC(C)=O)ccc3n2C)cc1

>  <LABEL_VALUE>
Y

$$$$
>  <STRUCTURE_NOTATION>
CCCn1c(-c2ccc(OC(C)=O)cc2)c(C)c2cc(OC(C)=O)ccc21

>  <LABEL_VALUE>
Y

$$$$
>  <STRUCTURE_NOTATION>
CCn1c(-c2ccc(OC(C)=O)cc2)c(C)c2ccc(OC(C)=O)cc21

>  <LABEL_VALUE>
N

$$$$
>  <STRUCTURE_NOTATION>
CCc1c(-c2ccc(OC(C)=O)cc2)n(CC)c2cc(OC(C)=O)ccc12

>  <LABEL_VALUE>
N

$$$$
>  <STRUCTURE_NOTATION>
CC(=O)Oc1ccc(-c2c(C)c3ccc(OC(C)=O)cc3n2C)cc1

>  <LABEL_VALUE>
Y

$$$$

* * *

target: Estrogen receptor (Mus musculus) (UniProt O08537+P19785); assay: Uterotrophic activity in mice as uterus dry weight (mg)/body weight (g) *100 at 5 ug dose; assay type: functional, tissue-based
Class TRUE: Uterotrophic effect at least 20. Class FALSE: Uterotrophic effect below 20.

>  <STRUCTURE_NOTATION>
CC(=O)Oc1ccc(-c2c(C)c3ccc(OC(C)=O)cc3n2C)cc1

>  <LABEL_VALUE>
TRUE

$$$$
>  <STRUCTURE_NOTATION>
CC(=O)Oc1ccc(-c2c(C)c3cc(OC(C)=O)ccc3n2C)cc1

>  <LABEL_VALUE>
FALSE

$$$$
>  <STRUCTURE_NOTATION>
CCn1c(-c2cccc(OC(C)=O)c2)c(C)c2ccc(OC(C)=O)cc21

>  <LABEL_VALUE>
FALSE

$$$$
>  <STRUCTURE_NOTATION>
CCCn1c(-c2ccc(OC(C)=O)cc2)c(C)c2cc(OC(C)=O)ccc21

>  <LABEL_VALUE>
TRUE

$$$$
>  <STRUCTURE_NOTATION>
CCc1c(-c2ccc(OC(C)=O)cc2)n(CC)c2ccc(OC(C)=O)cc12

>  <LABEL_VALUE>
TRUE

$$$$

* * *

molecular target: Estrogen receptor (Bos taurus) (UniProt Q9XSB5+P49884); assay: Relative binding affinity for the calf uterine estrogen receptor measured as the ratio of molar concentration of 17-beta-estradiol (E2) and inhibitor required to decrease the amount of bound [3H]E2 by 50%; type: protein assay
Let's look at some compounds and their measured RBA.
PROPERTY_NAME: RBA

>  <STRUCTURE_NOTATION>
CCn1c(-c2cccc(O)c2)c(C)c2ccc(O)cc21

>  <ENDPOINT_RESULT>
3

$$$$
>  <STRUCTURE_NOTATION>
Cc1c(-c2ccc(O)cc2)[nH]c2ccc(O)cc12

>  <ENDPOINT_RESULT>
0.06

$$$$
>  <STRUCTURE_NOTATION>
Cc1c(-c2cccc(O)c2)n(C)c2ccc(O)cc12

>  <ENDPOINT_RESULT>
0.6

$$$$
>  <STRUCTURE_NOTATION>
CCn1c(-c2cccc(O)c2)c(C)c2cc(O)ccc21

>  <ENDPOINT_RESULT>
2.2

$$$$
>  <STRUCTURE_NOTATION>
CCCn1c(-c2cccc(O)c2)c(C)c2ccc(O)cc21

>  <ENDPOINT_RESULT>
3.5

$$$$
>  <STRUCTURE_NOTATION>
CCn1c(-c2ccc(O)cc2)c(C)c2cccc(O)c21

>  <ENDPOINT_RESULT>
0.02

$$$$
>  <STRUCTURE_NOTATION>
CCCn1c(-c2ccc(O)cc2)cc2cc(O)ccc21

>  <ENDPOINT_RESULT>
18

$$$$
>  <STRUCTURE_NOTATION>
CCCn1c(-c2ccc(O)cc2)c(C)c2ccc(O)cc21

>  <ENDPOINT_RESULT>
13

$$$$
>  <STRUCTURE_NOTATION>
Cc1c(-c2ccc(O)cc2)n(C(C)C)c2ccc(O)cc12

>  <ENDPOINT_RESULT>
3.5

$$$$
>  <STRUCTURE_NOTATION>
Cc1c(-c2ccc(O)cc2)n(C(C)C)c2cc(O)ccc12

>  <ENDPOINT_RESULT>
13

$$$$
>  <STRUCTURE_NOTATION>
CCn1c(-c2cccc(O)c2)cc2ccc(O)cc21

>  <ENDPOINT_RESULT>
1.7

$$$$
>  <STRUCTURE_NOTATION>
CCCc1c(-c2ccc(O)cc2)n(CCC)c2ccc(O)cc12

>  <ENDPOINT_RESULT>
1.7

$$$$
>  <STRUCTURE_NOTATION>
CCn1c(-c2cccc(O)c2)cc2cc(O)ccc21

>  <ENDPOINT_RESULT>
1.7

$$$$
>  <STRUCTURE_NOTATION>
CCc1c(-c2ccc(O)cc2)n(CC)c2ccc(O)cc12

>  <ENDPOINT_RESULT>
23

$$$$
>  <STRUCTURE_NOTATION>
CCCn1c(-c2ccc(O)cc2)cc2ccc(O)cc21

>  <ENDPOINT_RESULT>
8.5

$$$$
>  <STRUCTURE_NOTATION>
CCn1c(-c2ccc(O)cc2)c(C)c2ccc(O)cc21

>  <ENDPOINT_RESULT>
33

$$$$
>  <STRUCTURE_NOTATION>
CCCn1c(-c2ccc(O)cc2)c(CC)c2ccc(O)cc21

>  <ENDPOINT_RESULT>
19

$$$$
>  <STRUCTURE_NOTATION>
CCn1c(-c2ccc(O)cc2)cc2cc(O)ccc21

>  <ENDPOINT_RESULT>
5.8

$$$$
>  <STRUCTURE_NOTATION>
CCc1c(-c2ccc(O)cc2)[nH]c2cc(O)ccc12

>  <ENDPOINT_RESULT>
0.13

$$$$
>  <STRUCTURE_NOTATION>
Cc1c(-c2ccc(O)cc2)[nH]c2cc(O)ccc12

>  <ENDPOINT_RESULT>
0.06

$$$$
>  <STRUCTURE_NOTATION>
CCCCn1c(-c2ccc(O)cc2)cc2ccc(O)cc21

>  <ENDPOINT_RESULT>
4.3

$$$$
>  <STRUCTURE_NOTATION>
CCCn1c(-c2ccc(O)cc2)c(C)c2cc(O)ccc21

>  <ENDPOINT_RESULT>
16

$$$$
>  <STRUCTURE_NOTATION>
CCCCn1c(-c2ccc(O)cc2)c(C)c2cc(O)ccc21

>  <ENDPOINT_RESULT>
4.6

$$$$
>  <STRUCTURE_NOTATION>
CCCn1c(-c2cccc(O)c2)c(C)c2cc(O)ccc21

>  <ENDPOINT_RESULT>
7.4

$$$$
>  <STRUCTURE_NOTATION>
Oc1ccc(-c2cc3cc(O)ccc3[nH]2)cc1

>  <ENDPOINT_RESULT>
0.01

$$$$
>  <STRUCTURE_NOTATION>
Cc1c(-c2ccc(O)cc2)n(C)c2cc(O)ccc12

>  <ENDPOINT_RESULT>
10

$$$$
>  <STRUCTURE_NOTATION>
CCCCCn1c(-c2ccc(O)cc2)c(C)c2cc(O)ccc21

>  <ENDPOINT_RESULT>
2.3

$$$$
>  <STRUCTURE_NOTATION>
Oc1ccc(-c2cc3ccc(O)cc3[nH]2)cc1

>  <ENDPOINT_RESULT>
0.01

$$$$
>  <STRUCTURE_NOTATION>
Cn1c(-c2ccc(O)cc2)cc2cc(O)ccc21

>  <ENDPOINT_RESULT>
0.8

$$$$
>  <STRUCTURE_NOTATION>
CCc1c(-c2ccc(O)cc2)n(C)c2cc(O)ccc12

>  <ENDPOINT_RESULT>
5.9

$$$$
>  <STRUCTURE_NOTATION>
Cc1c(-c2ccc(O)cc2)n(C)c2ccc(O)cc12

>  <ENDPOINT_RESULT>
4.6

$$$$
>  <STRUCTURE_NOTATION>
Cc1c(-c2cccc(O)c2)n(C)c2cc(O)ccc12

>  <ENDPOINT_RESULT>
0.55

$$$$
>  <STRUCTURE_NOTATION>
CCn1c(-c2ccc(O)cc2)cc2ccc(O)cc21

>  <ENDPOINT_RESULT>
16

$$$$
>  <STRUCTURE_NOTATION>
CCn1c(-c2ccc(O)cc2)c(C)c2cc(O)ccc21

>  <ENDPOINT_RESULT>
9.5

$$$$
>  <STRUCTURE_NOTATION>
Cn1c(-c2ccc(O)cc2)cc2ccc(O)cc21

>  <ENDPOINT_RESULT>
3.8

$$$$
>  <STRUCTURE_NOTATION>
CCc1c(-c2ccc(O)cc2)n(CC)c2cc(O)ccc12

>  <ENDPOINT_RESULT>
21

$$$$
